# experiment: Ascending multiple dose pharmacokinetics of enteric coated capsules in schizophrenic patients
# Assay type: in vivo, human
# test_conditions: human, plasma, po, 100 mg, Schizophrenia patients, multiple oral doses (q12 h) 100 mg, day 10; read-out: AUCss (AUC0-12) (Mean)
observable: AUC(0-t)

Task: Using known records, supply AUC(0-t) for Cl.c1cc2c3c(c1)[C@H]1CCC[C@H]1CN3CCNC2 [Compound A.HCl]
Output: ~33.2 ng·h/mL

* * *

# experiment: Ascending multiple dose pharmacokinetics of enteric coated capsules in healthy subjects
# Assay type: in vivo, human
# test_conditions: human, plasma, po, 75 mg, healthy subjects, single oral dose 75 mg, day 1; read-out: Tmax (Mean)
observable: Tmax (h)
Provide the reading as a plain figure in h.

Task: Using known records, supply Tmax for Cl.c1cc2c3c(c1)[C@H]1CCC[C@H]1CN3CCNC2 [Compound A.HCl]
Output: 5.5
